- tested_on: T1, human CD94 expressed on cells (human primary NK cells in PBMCs; HEK cells expressing human CD94) (human, UniProt Q13241 1-179)
- T1 construct: whole, on cells; also called KLRD1; Natural killer cells antigen CD94
- T1 sequence (looked up): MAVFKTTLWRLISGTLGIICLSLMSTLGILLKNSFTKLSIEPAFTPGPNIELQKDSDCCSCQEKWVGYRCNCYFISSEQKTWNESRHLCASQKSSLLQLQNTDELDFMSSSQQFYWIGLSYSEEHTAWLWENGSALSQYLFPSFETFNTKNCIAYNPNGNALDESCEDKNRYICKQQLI
- procedure_text: flow cytometry, HEK cells expressing human CD94, 1st run
value_kind: EC50 (nM)
Supply the numeric figure in nM, leaving out any unit text.

Value of measured EC50 for the entry Ab.31 hG1 (antibody, V domains shown, Human IgG1 form; also called Ab.31 human IgG1) VH: EVQLLESGGGLVKPGGSLRLSCAASGFTFSSYSMNWVRQAPGKGLEWVSSISTSSNFIYYADSVKGRFTISRDNAKNSLYLQMNSLRAEDTAVYYCARDLGRYYYYMDVWGKGTTVTVSS VL: DIVMTQSPSSLSASVGDRVTITCRASQSISSWLAWYQQKPGKAPKSLIYAASSLQSGVPSRFSGSGSGTDFTLTISSLQPEDVATYYCQKYNSAPFTFGPGTKVDIK : 0.1

Value of measured EC50 for the entry Ab.29 hG1 (antibody, V domains shown, Human IgG1 form; also called Ab.29 human IgG1) VH: EVQLLESGGGLVKPGGSLRLSCAASGFTFSSYSMNWVRQAPGKGLEWVSSISTSSNFIYYADSVKGRFTISRDNAKNSLYLQMNSLRAEDTAVYYCARDLGRYYYYMDVWGKGTTVTVSS VL: DIVMTQSPSSLSASVGDRVTITCRASQSISSWLAWYQQKPGKVPKSLIYAASSLQSGVPSKFSGSGSGTDFTLTISSLQPEDVATYYCQKYNSAPFTFGPGTKVDIK : 0.18

Value of measured EC50 for the entry Ab.26 hG1 (antibody, V domains shown, Human IgG1 form; also called Ab.26 human IgG1) VH: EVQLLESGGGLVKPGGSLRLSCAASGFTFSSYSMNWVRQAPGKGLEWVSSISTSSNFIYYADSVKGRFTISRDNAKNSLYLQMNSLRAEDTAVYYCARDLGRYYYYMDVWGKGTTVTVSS VL: DIQMTQSPSSLSASVGDRVTITCRASQSISSWLAWYQQKPGKAPKSLIYAASSLQSGVPSKFSGSGSGTDFTLTISSLQPEDVATYYCQKYNSAPFTFGPGTKVDIK : 0.14

Entry source: patent US20250197505A1
